- ASSAY: qHTS of small molecules that selectively kill Giardia lamblia: Hit Validation.
- TEST CONTEXT: Giardia lamblia trophozoite viability, dose-response; series mostly up to 38.3 µM
Screen size: about 1,300 compounds; about 1,000 (77%) were called active. Inconclusive results (about 7%) are left out. The call rests on the fitted dose curve; in most records, active means well fitted inhibition curve with a large enough effect; inconclusive means small, poorly fitted or top-dose-only effect; inactive means no such curve, though single readings can be large or run the other way. The set was probably picked from earlier hits. This is one part of the list.
// allowed return values: active, inactive

These solved cases illustrate the format of a correct answer.
COc1ccc(OC)c(/C=C/c2ccc3ccccc3n2)c1 inactive
Nc1ccc(/C=C/c2nccc3ccccc23)cc1 active

Here is the next item to consider.
Would you mind telling me which call this test gave Cc1nc2c(nc1C)C(=O)c1ccccc1C2=O ?
active

----------
- ASSAY: qHTS of small molecules that selectively kill Giardia lamblia: Hit Validation.
- TEST CONTEXT: Giardia lamblia trophozoite viability, dose-response; series mostly up to 38.3 µM
The campaign covered roughly 1,300 compounds. About 1,000 (77%) were called active. Another 7% or so got no clear call; they are omitted. The call rests on the fitted dose curve; in most records, active means well fitted inhibition curve with a large enough effect; inconclusive means small, poorly fitted or top-dose-only effect; inactive means no such curve, though single readings can be large or run the other way. So high a share suggests a set chosen from earlier hits. The list shows a part of the results.
// allowed return values: Y = active, N = inactive

COMPOUND	ASSIGNED CLASS
COc1ccc(CNC(=O)COc2cccnc2[N+](=O)[O-])cc1	Y
COc1ccc(CNC(=O)COc2cccnc2[N+](=O)[O-])cc1OC	Y
Cc1ccc(C(=O)c2c3ccc([N+](=O)[O-])cc3[n+]([O-])n2CCCC(N)=O)cc1	Y
O=C(COc1cccnc1[N+](=O)[O-])NCc1ccco1	Y
COc1ccc(NC(=O)CCCn2nc(C)c3c(C)n(-c4ccccc4)nc3c2=O)cc1OC	N

Would you mind telling me which call this test gave COCc1nnc(NC(=O)c2ccc(Cl)cc2[N+](=O)[O-])s1 ?
Y

Would you mind telling me which call this test gave CNc1nnc(-c2ccc(N(C)C)cc2)s1 ?
Y

Would you mind telling me which call this test gave O=C(CCCn1cnc([N+](=O)[O-])n1)Nc1cccc(Cl)c1Cl ?
Y

Would you mind telling me which call this test gave Cc1nc(C)c(C(=O)Nc2ncc([N+](=O)[O-])s2)o1 ?
Y

Would you mind telling me which call this test gave CCN(CC)/[N+]([O-])=N/Oc1ccc([N+](=O)[O-])cc1[N+](=O)[O-] ?
Y

Would you mind telling me which call this test gave NC(=O)CCn1c(C(=O)c2cccc([N+](=O)[O-])c2)c2ccccc2[n+]1[O-] ?
Y

Would you mind telling me which call this test gave CCOC(=O)C1CCN(c2c([N+](=O)[O-])c(C(Cl)Cl)nn2-c2ccccc2)CC1 ?
Y

Would you mind telling me which call this test gave O=C1c2ccccc2C(=O)c2c1ccc1c(=O)n(C3CCCCC3)[nH]c21 ?
Y

Would you mind telling me which call this test gave CC(C)Cn1[nH]c2c3c(ccc2c1=O)C(=O)c1ccccc1C3=O ?
Y

----------
- ASSAY: qHTS of small molecules that selectively kill Giardia lamblia: Hit Validation. Further: potency means the concentration at half of the fitted maximal effect.
- TEST CONTEXT: Giardia lamblia trophozoite viability, dose-response; series mostly up to 38.3 µM
The campaign covered roughly 1,300 compounds. About 1,000 (77%) were called active. Another 7% or so got no clear call; they are omitted. So high a share suggests a set chosen from earlier hits. The list shows a part of the results.
EXPERIMENTAL READOUT: Potency

Use the examples below as a reference point.
C(=NN1CCCCCC1)c1ccc2ccccc2n1 1.03 µM (active)
CC(C)C(=O)NC(=S)Nc1ccc(S(=O)(=O)N2CCCC2)cc1 inactive
O=C(Nc1ccc(S(=O)(=O)N2CCCC2)cc1)c1ccc([N+](=O)[O-])o1 1.16 µM (active)
O=C(NCc1ccccc1CN1CCCC1)c1cccc(S(=O)(=O)N2CCCC2)c1 inactive

Dear colleague, I am looking for the recorded Potency of the following compound: O=C(O)CCCCCNS(=O)(=O)c1cccc2c1C(=O)c1ccccc1C2=O
3.65 µM (active)

Dear colleague, I am looking for the recorded Potency of the following compound: CCC1=C(OC(=O)N(CC)CC)N2C(=O)OC(=NCC(=O)OC)[C@]2(C)[C@H]2C1=CC[C@H]1C(=O)N(CC)C(=O)[C@H]12
inactive

Dear colleague, I am looking for the recorded Potency of the following compound: O=C(Nc1ccc2cn[nH]c2c1)c1ccc(S(=O)(=O)N2CCOCC2)cc1
inactive

----------
- ASSAY: qHTS of small molecules that selectively kill Giardia lamblia: Hit Validation.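 Further: viability measured as ATP content by luminescence so killing lowers signal; trophozoites exposed to compounds for 48 h anaerobically at 37 °C; nearly all actives have a fitted effect of over 65% in size.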
- TEST CONTEXT: Giardia lamblia trophozoite viability, dose-response; series mostly up to 38.3 µM
In all, about 1,300 compounds went through this assay and about 1,000 (77%) were called active. About 7% were inconclusive and are not listed. The call rests on the fitted dose curve; in most records, active means well fitted inhibition curve with a large enough effect; inconclusive means small, poorly fitted or top-dose-only effect; inactive means no such curve, though single readings can be large or run the other way. The set was probably picked from earlier hits. Some of the results follow.
// allowed return values: active, inactive

These solved cases illustrate the format of a correct answer.
COMPOUND	ASSIGNED CLASS
Cn1nc(-c2ccc(Cl)cc2)nc2c(=O)n(C)c(=O)nc1-2	active
CC1CC(C)C(=O)C(C(CC2CC(=O)NC(=O)C2)OC(=O)CC(=O)c2ccccc2)C1 (stereo unspecified)	active
COc1ccc(CN(C(=O)CSc2nnc(-c3ccc(OC)c(OC)c3)o2)c2ccc(F)cc2)cc1	active
CCCC/C=C/C(NC(=O)c1ccc(C(=O)OC)cc1)c1ccccc1 (stereo unspecified)	inactive

Would you mind telling me which call this test gave COC(=O)c1c(NC(=O)c2ccc([N+](=O)[O-])o2)sc2c1CCN(C(C)C)C2 ?
active

Would you mind telling me which call this test gave O=C(Nc1cccc(NC(=O)c2ccccc2Cl)c1)c1ccc([N+](=O)[O-])o1 ?
active

Would you mind telling me which call this test gave COc1ccc2cc(-c3cc(C(=O)OCC(=O)Nc4c(C)n(C)n(-c5ccccc5)c4=O)c4ccccc4n3)ccc2c1 ?
active

Would you mind telling me which call this test gave CCn1ncc([N+](=O)[O-])c1C(=O)Nc1nc2cccc(C)c2s1 ?
active

Would you mind telling me which call this test gave COc1cc(NC(=O)c2ccc([N+](=O)[O-])o2)ccc1NC(=O)c1ccco1 ?
active

Would you mind telling me which call this test gave CCOc1ccc2nc(NC(=O)c3c([N+](=O)[O-])cnn3CC)sc2c1 ?
active

Would you mind telling me which call this test gave COc1ccc(NC(C)C(=O)N/N=C/c2ccc([N+](=O)[O-])s2)cc1 (stereo unspecified) ?
active

----------
- ASSAY: qHTS of small molecules that selectively kill Giardia lamblia: Hit Validation.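 Further: viability measured as ATP content by luminescence so killing lowers signal; trophozoites exposed to compounds for 48 h anaerobically at 37 °C; nearly all actives have a fitted effect of over 65% in size.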
- TEST CONTEXT: Giardia lamblia trophozoite viability, dose-response; series mostly up to 38.3 µM
In all, about 1,300 compounds went through this assay and about 1,000 (77%) were called active. Another 7% or so got no clear call; they are omitted. Calls come from the whole dose curve; as a rule, active = well fitted inhibition curve with a large enough effect; inconclusive = small, poorly fitted or top-dose-only effect; inactive = no such curve, though single readings can be large or run the other way. The set was probably picked from earlier hits. The list shows a part of the results.
// allowed return values: active, inactive

These solved cases illustrate the format of a correct answer.
COMPOUND	ASSIGNED CLASS
O=C(CSc1ccsc1[N+](=O)[O-])NCc1ccccc1	active
Cc1cccc(C)c1OCC(=O)N(Cc1cccs1)C1CCS(=O)(=O)C1 (stereo not drawn)	inactive

Here is the next item to consider.
Would you mind telling me which call this test gave O=C(CSc1ccsc1[N+](=O)[O-])NC1CCCC1 ?
active

----------
- ASSAY: qHTS of small molecules that selectively kill Giardia lamblia: Hit Validation.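 Further: viability measured as ATP content by luminescence so killing lowers signal; trophozoites exposed to compounds for 48 h anaerobically at 37 °C; nearly all actives have a fitted effect of over 65% in size.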
- TEST CONTEXT: Giardia lamblia trophozoite viability, dose-response; series mostly up to 38.3 µM
About 1,000 (77%) of roughly 1,300 compounds were called active. Roughly 7% stayed inconclusive and do not appear here. Calls come from the whole dose curve; as a rule, active = well fitted inhibition curve with a large enough effect; inconclusive = small, poorly fitted or top-dose-only effect; inactive = no such curve, though single readings can be large or run the other way. So high a share suggests a set chosen from earlier hits. The list shows a part of the results.
// allowed return values: label 1 = active, label 0 = inactive

Would you mind telling me which call this test gave O=C(COc1cccnc1[N+](=O)[O-])N1CCc2ccccc21 ?
label 1

----------
- ASSAY: qHTS of small molecules that selectively kill Giardia lamblia: Hit Validation.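 Further: viability measured as ATP content by luminescence so killing lowers signal; trophozoites exposed to compounds for 48 h anaerobically at 37 °C; nearly all actives have a fitted effect of over 65% in size.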
- TEST CONTEXT: Giardia lamblia trophozoite viability, dose-response; series mostly up to 38.3 µM
Among all 1,300 compounds or so, about 1,000 (77%) were called active. Another 7% or so got no clear call; they are omitted. The call rests on the fitted dose curve; in most records, active means well fitted inhibition curve with a large enough effect; inconclusive means small, poorly fitted or top-dose-only effect; inactive means no such curve, though single readings can be large or run the other way. So high a share suggests a set chosen from earlier hits. This is one part of the list.
// allowed return values: True (active), False (inactive)

COMPOUND	ASSIGNED CLASS
COc1ccc(-c2nnc(NC(=O)c3ccc([N+](=O)[O-])o3)o2)c(OC)c1	True
O=C(N/N=C/c1ccc([N+](=O)[O-])o1)c1cc(-c2cccc(Br)c2)nc2ccccc12	True
O=c1c([N+](=O)[O-])cc(C(F)(F)F)cn1Cc1cccc(Cl)c1	True
Cc1ccc(-c2cc(C(=O)N/N=C/c3ccc([N+](=O)[O-])o3)c3ccccc3n2)o1	True
CCC(C(=O)OC)n1c(-c2ccccc2)nc2ccccc2c1=O (configuration not stated)	False
CCOC(=O)CSc1ccc(C(=O)NCCCN2CCOCC2)cc1[N+](=O)[O-]	True
NC(=S)N/N=C1\c2ccccc2-c2c(C(=O)O)cccc21	False
O=C(N/N=C/c1ccc([N+](=O)[O-])s1)c1ccccc1	True

Would you mind telling me which call this test gave O=C1c2ccccc2C(=O)c2[nH]cnc21 ?
True

Would you mind telling me which call this test gave Cc1cc2[nH]c3c(c[n+](C)c4ccccc34)c2cc1C ?
True

Would you mind telling me which call this test gave N#Cc1nc(-c2ccc(OCc3ccccc3)cc2)oc1N1CCC(C(N)=O)CC1 ?
False

Would you mind telling me which call this test gave CCOC(=O)c1c(C)[nH]c(C)c1S(=O)(=O)N1CCN(c2ccc([N+](=O)[O-])cc2)CC1 ?
True
